# Target or system: BRD4-BD1 (Homo sapiens (Human))
# Test method notes: AlphaLisa bromodomain binding assay, BRD4-BD1
# Condition notes: Table 6; read-out: BRD4(1) IC50
# IC50 values compiled below

# Molecule, IC50 (nM)
rows = [
    ("CC(C)(C)S(=O)(=O)Nc1cc(-n2ccc3cnc(Nc4ccc(N5CCC(C(=O)O)CC5)c(F)c4)nc32)ccc1F", 1100),
    ("CN1CCN(c2ccc(Nc3ncc4ccn(-c5cccc(NS(=O)(=O)C6(C)CC6)c5)c4n3)cc2)CC1", 930),
    ("CNCCNC(=O)Cc1ccc(Nc2ncc3ccn(-c4cccc(NS(=O)(=O)C(C)(C)C)c4)c3n2)cc1", 205),
    ("CN1CCN(c2ccc(Nc3ncc4ccn(-c5ccc(CNS(=O)(=O)C(C)(C)C)cc5)c4n3)cc2)CC1 [drawing 378]", 10000),
    ("CNc1cc(Nc2ncc3ccn(-c4cccc(NS(=O)(=O)C(C)(C)C)c4)c3n2)ccc1N1CCN(C)CC1", 561),
    ("Cc1cnc(Nc2ccc(C(=O)NC3CCN(C)CC3)c(F)c2)nc1Nc1ccc2c(c1)N(S(=O)(=O)C(C)(C)C)CC2", 87),
    ("CN1CCN(c2ccc(Nc3ncc4ccn(-c5ccc6c(c5)N(S(=O)(=O)C(C)(C)C)CC6)c4n3)cc2F)CC1", 1300),
    ("CC(C)(C)S(=O)(=O)Nc1cccc(Nc2nc(NC3CCNCC3)nc3sccc23)c1 [drawing 237]", 194),
]
